- target desc: CB1 (CNR1) (Homo sapiens)
- Sequence (P21554 whole entry): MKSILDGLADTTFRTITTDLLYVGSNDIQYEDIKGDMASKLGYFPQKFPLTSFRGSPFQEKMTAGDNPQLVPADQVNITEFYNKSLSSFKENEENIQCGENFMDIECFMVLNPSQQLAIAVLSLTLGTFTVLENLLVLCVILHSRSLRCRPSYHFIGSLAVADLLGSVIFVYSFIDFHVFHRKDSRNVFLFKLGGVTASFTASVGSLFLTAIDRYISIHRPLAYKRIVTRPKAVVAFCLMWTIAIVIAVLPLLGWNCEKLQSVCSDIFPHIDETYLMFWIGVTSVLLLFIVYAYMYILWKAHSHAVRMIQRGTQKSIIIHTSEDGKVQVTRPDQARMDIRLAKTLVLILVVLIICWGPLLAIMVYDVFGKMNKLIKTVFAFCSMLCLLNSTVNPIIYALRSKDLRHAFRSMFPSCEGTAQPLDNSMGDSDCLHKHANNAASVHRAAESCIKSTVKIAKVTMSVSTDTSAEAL
- assay comment: cAMP CNR1 Hunter cell line antagonist assay (CB1 assay)
- study conditions: antagonist mode, cAMP CNR1 Hunter cells, EC80 agonist; read-out: CB1 assay, Efficacy (IC50)
This listing pairs compounds with measured IC50.

Recorded IC50, per entry:
CCC1Oc2cc(S(=O)(=O)Nc3cc(Cl)ccc3C)c(Cl)cc2NC1=O (centres unmarked) [BC19215] ... ≥ 25 µM
CC(C)CC1Oc2c(cc(Br)cc2S(=O)(=O)Nc2ccc(F)c(F)c2)NC1=O (centres unmarked) [BC19759] ... 1 to 25 µM
CC1Oc2c(cc(Br)cc2S(=O)(=O)Nc2ccc(F)cc2Cl)N(C)C1=O (centres unmarked) [BC19908] ... ≥ 25 µM

Request: Field: IC50 (CB1 (CNR1) (Homo sapiens)). Entry: CC1Oc2cc(S(=O)(=O)N3CCN(C)CC3)c(Br)cc2NC1=O (centres unmarked) [BC19219]
Result: ≥ 25 µM

Request: IC50, test system CB1 (CNR1) (Homo sapiens), entry CC1Oc2cc(S(=O)(=O)Nc3ccccc3)c(Br)cc2N(C)C1=O (centres unmarked) [BC19790]
Result: 1 to 25 µM

Request: Record CCc1cccc(NS(=O)(=O)c2cc(Br)cc3c2OC(C)C(=O)N3C)c1 (centres unmarked) [BC19900] : what is its IC50 with CB1 (CNR1) (Homo sapiens)?
Result: ≥ 25 µM

Request: Missing value: IC50, CB1 (CNR1) (Homo sapiens), entry Cc1ccc(NS(=O)(=O)c2cc(Br)cc3c2OC(C)C(=O)N3C)cc1F (centres unmarked) [BC19785] . Fill in?
Result: ≥ 25 µM

Origin of the recorded values: patent US20240000806A1
